The reported numbers originate from paper PMC11747885.

# study_target: Rlig1-AMP (Homo sapiens, UniProt Q8N999)
# Construct: made in house; host or cells: E. coli BL21 (DE3), pET15b-Rlig1
# Sequence (Q8N999 whole entry): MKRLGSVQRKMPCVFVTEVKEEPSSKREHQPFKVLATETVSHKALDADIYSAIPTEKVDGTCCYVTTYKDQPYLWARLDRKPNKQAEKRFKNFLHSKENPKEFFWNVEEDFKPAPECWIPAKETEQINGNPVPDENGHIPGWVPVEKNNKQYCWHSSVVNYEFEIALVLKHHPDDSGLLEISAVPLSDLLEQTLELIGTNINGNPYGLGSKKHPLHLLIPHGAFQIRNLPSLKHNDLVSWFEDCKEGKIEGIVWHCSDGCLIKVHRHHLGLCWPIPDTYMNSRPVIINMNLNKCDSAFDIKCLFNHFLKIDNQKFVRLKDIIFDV
# test_protocol: FRET-based high-throughput screening of inhibitors for Rlig1-AMP
# Assay type: biochemical
# condition_info: HTS hits; normalized value (npi)

compound	study_target	1-D Distance.npi
CCCc1cc(C(=O)N[C@H](Cc2ccc(-c3cccc(OC(F)(F)F)c3)nc2)C(=O)N[C@@H]2CCNC2)sc1C	Rlig1-AMP (Homo sapiens, UniProt Q8N999)	96.1946
Cn1ncnc2c(=O)n(C)c(=O)nc1-2	Rlig1-AMP (Homo sapiens, UniProt Q8N999)	89.8188
O=S(=O)(O)c1ccc2cc(N=Nc3cc(S(=O)(=O)O)c4cccnc4c3O)ccc2c1	Rlig1-AMP (Homo sapiens, UniProt Q8N999)	87.5142
Cn1nc(-c2ccccc2)nc2c(=O)n(C)c(=O)nc1-2	Rlig1-AMP (Homo sapiens, UniProt Q8N999)	71.558
CC(C)c1nc2c([nH]1)-c1ccccc1C(=O)C2=O	Rlig1-AMP (Homo sapiens, UniProt Q8N999)	96.7085
Cc1cc(NCCCN(C)C)c2ccc3c(ccc4c(NCCCN(C)C)cc(C)nc43)c2n1.Cl.Cl.Cl.Cl [FGI-106 (tetrahydrochloride)]	Rlig1-AMP (Homo sapiens, UniProt Q8N999)	96.4905
Cl.Cl.N=C(N)c1ccc2nc(-c3ccc(-c4nc5ccc(C(=N)N)cc5[nH]4)[se]3)[nH]c2c1 [DB1976 (dihydrochloride)]	Rlig1-AMP (Homo sapiens, UniProt Q8N999)	105.279
CN1CCCN(C(=O)c2cccc(-c3ccc(/C=C4/C(=O)Nc5ccc(Cl)cc54)o3)c2)CC1	Rlig1-AMP (Homo sapiens, UniProt Q8N999)	93.2533
CN(C)c1ccc2c(c1)Sc1cc(N(C)C)ccc1N2.CS(=O)(=O)O.CS(=O)(=O)O [Leucomethylene blue (mesylate)]	Rlig1-AMP (Homo sapiens, UniProt Q8N999)	72.1191
O=[N+]([O-])c1ccc(Nc2ccccc2-c2ccccc2)c2nonc12	Rlig1-AMP (Homo sapiens, UniProt Q8N999)	91.4368
CN(C)C/C=C/C(=O)Nc1ccc(C(=O)Nc2cccc(Nc3ncc(Cl)c(-c4c[nH]c5ccccc45)n3)c2)cc1.Cl [THZ1 (Hydrochloride)]	Rlig1-AMP (Homo sapiens, UniProt Q8N999)	99.9172
c1cc(-c2cnn3cc(-c4ccc(N5CCNCC5)cc4)cnc23)c2cccnc2c1	Rlig1-AMP (Homo sapiens, UniProt Q8N999)	85.2649
Cc1cc(N=Nc2ccc3c(c2)CCC(=O)N3)c(N)cc1O	Rlig1-AMP (Homo sapiens, UniProt Q8N999)	80.8903
COS(=O)(=O)[O-].COc1cccc2c1nc1ccccc1[n+]2C	Rlig1-AMP (Homo sapiens, UniProt Q8N999)	71.83
O=C1c2ccccc2-c2nc3nnnn3nc21.O=C1c2ccccc2-c2nn3nnnc3nc21	Rlig1-AMP (Homo sapiens, UniProt Q8N999)	99.8878
N[C@@H](Cc1cc(CP(=O)(O)O)cc(-c2ccccc2Cl)c1)C(=O)O	Rlig1-AMP (Homo sapiens, UniProt Q8N999)	76.8207
CCCCCCCCCCCCCCCC(=O)NCCCC[C@@H](N)C(=O)NCCCNCCCCNCCCN.Cl.Cl.Cl.Cl [AMXT-1501 tetrahydrochloride]	Rlig1-AMP (Homo sapiens, UniProt Q8N999)	103.958
CN1CCC(Nc2nc(Nc3ccc(Oc4ccccc4)cc3)c3c(=O)[nH]cc(Br)c3n2)CC1	Rlig1-AMP (Homo sapiens, UniProt Q8N999)	93.9141
COc1cc2c(NC3CCN(C)CC3)cc(-c3ccc(C)o3)nc2cc1OCCCN1CCCC1	Rlig1-AMP (Homo sapiens, UniProt Q8N999)	99.0872
CC(=O)Nc1cc(Oc2ccc3c(C(=O)Nc4ccc(CN5CCN(C)CC5)c(C(F)(F)F)c4)cccc3c2)ncn1	Rlig1-AMP (Homo sapiens, UniProt Q8N999)	93.5609
COc1nc(-c2cc(C)c(N[C@@H](C)c3ccc(F)cc3)nn2)ccc1-n1cnc(C)c1	Rlig1-AMP (Homo sapiens, UniProt Q8N999)	75.4488
C[n+]1ccc(/C=C/c2ccc3c(c2)c2cc(/C=C/c4cc[n+](C)cc4)ccc2n3CCOCCOCCOCC[N+]2(C)CCCCC2)cc1.[I-].[I-].[I-]	Rlig1-AMP (Homo sapiens, UniProt Q8N999)	99.5333
COC1=CC(c2cc3ccccc3[nH]2)=N/C1=C\c1[nH]c(C)cc1C.CS(=O)(=O)O [Obatoclax (Mesylate)]	Rlig1-AMP (Homo sapiens, UniProt Q8N999)	94.4219
CCn1c(=O)/c(=C2\Sc3ccccc3N2C)s/c1=C\c1cccc[n+]1CC.[Cl-]	Rlig1-AMP (Homo sapiens, UniProt Q8N999)	104.232
CN(C)Cc1ccc(-c2cnn3c(-c4cccc(NC(=O)c5cccc(C(F)(F)F)c5)c4)ccnc23)cc1	Rlig1-AMP (Homo sapiens, UniProt Q8N999)	95.4397
Cn1nc(-c2ccc(C(F)(F)F)cc2)nc2c(=O)n(C)c(=O)nc1-2	Rlig1-AMP (Homo sapiens, UniProt Q8N999)	89.8871
COc1cccc2c1C(=O)c1c(O)c3c(c(O)c1C2=O)C[C@@](O)(C(C)=O)C[C@@H]3O[C@H]1C[C@H](NC(=O)OCc2ccc(O[C@@H]3O[C@H](CO)[C@H](O)[C@H](O)[C@H]3O)c([N+](=O)[O-])c2)[C@H](O)[C@H](C)O1	Rlig1-AMP (Homo sapiens, UniProt Q8N999)	83.3585
O=C1c2ccccc2C(=O)c2c1cc(S(=O)(=O)Nc1ccc(C(F)(F)F)cc1)c(O)c2O [PGMI-004A]	Rlig1-AMP (Homo sapiens, UniProt Q8N999)	78.7935

###

# study_target: Rlig1-AMP (Homo sapiens)
# Construct: made in house; host or cells: E. coli BL21 (DE3), pET15b-Rlig1
# test_protocol: Radioactive RNA ligation assay (hit validation, 10 µM test and IC50 determination)
# Format: biochemical
# condition_info: log(inhibitor) vs. response, variable slope (four parameters)
value_kind: Bottom (best-fit value)

> print(dat)
                            smiles.notation  test.result
1  Cc1cc(Nc2ccc(NC(=O)c3ccc(Nc4ccnc5[nH]ccc45)cc3)cc2)nc(N)n1        7.468
2  Nc1cc(Nc2ccc(NC(=O)c3ccc(Nc4ccnc5ccccc45)cc3)cc2)ccn1        4.368
3  CNc1nccc(Nc2ccc(NC(=O)c3ccc(Nc4ccnc5ccccc45)cc3)cc2)n1        7.458

###

Measured LogIC50 (best-fit value) of individual entries
# study_target: Rlig1-AMP (Homo sapiens, UniProt Q8N999)
# Construct: made in house; host or cells: E. coli BL21 (DE3), pET15b-Rlig1
# test_protocol: Radioactive RNA ligation assay (hit validation, 10 µM test and IC50 determination)
# Format: biochemical
# condition_info: log of µM; four-parameter fit
value_kind: LogIC50 (best-fit value)

> print(dat)
                                   compound  test.result
1  Nc1nccc(Nc2ccc(NC(=O)c3ccc(Nc4ccnc5ccccc45)cc3)cc2)n1 [Compound 26]       0.6524
2  Cc1cc(Nc2ccc(NC(=O)c3ccc(Nc4ccnc5[nH]ccc45)cc3)cc2)nc(N)n1 [Compound 46]       0.8514
3  Nc1nc(Nc2ccc(NC(=O)c3ccc(Nc4ccnc5ccccc45)cc3)cc2)cc(C(F)(F)F)n1 [Compound 41]       0.9022

###

# study_target: Rlig1-AMP (Homo sapiens, UniProt Q8N999)
# Construct: made in house; host or cells: E. coli BL21 (DE3), pET15b-Rlig1
# test_protocol: FRET-based high-throughput screening of inhibitors for Rlig1-AMP
# Type: biochemical
# condition_info: HTS hits; normalised value of 1-D Distance

compound	1-D Distance.npi
CC(/C=C/C=C(\C)C(=O)O[C@@H]1O[C@H](CO)[C@@H](O)[C@H](O)[C@H]1O)=C\C=C\C=C(C)\C=C\C=C(/C)C(=O)O[C@@H]1O[C@H](CO[C@@H]2O[C@H](CO)[C@@H](O)[C@H](O)[C@H]2O)[C@@H](O)[C@H](O)[C@H]1O [Crocin II]	72.9439
CC(C)N=C(N)c1ccc2nc(-c3ccc(OCc4cccc(COc5ccc(-c6nc7ccc(C(N)=NC(C)C)cc7[nH]6)cc5)c4F)cc3)[nH]c2c1 [DB2313]	88.7864
O.O=C1C=CC[C@@H]2[C@H]3CCCN4CCC[C@@H](CN12)[C@@H]34 [Sophocarpine (monohydrate)]	71.833
CCC(O)C(=O)[O-].[Na+] (centres unmarked) [Sodium 2-hydroxybutanoate]	73.0807
CN(C)c1ccc(Nc2c3ccc(NC(=O)CCN4CCCC4)cc3nc3cc(NC(=O)CCN4CCCC4)ccc23)cc1.Cl.Cl.Cl [Braco-19 (trihydrochloride)]	102.921
C[n+]1ccc(-c2c3nc(c(-c4cc[n+](C)cc4)c4ccc([nH]4)c(-c4cc[n+](C)cc4)c4nc(c(-c5cc[n+](C)cc5)c5ccc2[nH]5)C=C4)C=C3)cc1.Cc1ccc(S(=O)(=O)[O-])cc1.Cc1ccc(S(=O)(=O)[O-])cc1.Cc1ccc(S(=O)(=O)[O-])cc1.Cc1ccc(S(=O)(=O)[O-])cc1 [TMPyP4 tosylate]	106.113
C/C=C/c1cc(OC)c(OC)cc1OC [alpha-Asarone]	73.1231
Cc1cnc(CNC(=O)c2c(=O)c3ccc(N4CCCN(C)CC4)nc3n3c2sc2ccccc23)cn1.Cl.Cl [CX-5461 dihydrochloride]	72.2021
CN(C)CCSSCCNC(=O)C1CCN(C(=O)CSc2ccc(Cl)cc2)CC1.O=C(O)C(F)(F)F [6H05 (TFA)]	75.4127
NC[C@@H]1O[C@H](O[C@H]2[C@@H](O)[C@H](O[C@@H]3[C@@H](O)[C@H](N)C[C@H](N)[C@H]3O[C@H]3O[C@H](CO)[C@@H](O)[C@H](O)[C@H]3N)O[C@@H]2CO)[C@H](N)[C@@H](O)[C@@H]1O.O=S(=O)(O)O [Paromomycin (sulfate)]	82.0351
Cl.O=C1NCC2(CCN(CCc3ccccc3)CC2)O1 [Fenspiride (hydrochloride)]	70.4519
CN1CCC=C(C(=O)O)C1 [Arecaidine]	71.9903
Cl.Cl.Cn1cc(NC(=O)c2cc(NC(=O)CN=C(N)N)cn2C)cc1C(=O)NCCC(=N)N [Netropsin (dihydrochloride)]	75.4127
CCCCCCCCCCCCCCCC[N+](C)(C)CCN(Cc1ccc(OC)cc1)c1ncccn1.[Br-] [Thonzonium (bromide)]	101.053
NC[C@@H]1O[C@H](O[C@H]2[C@@H](O)[C@H](O[C@@H]3[C@@H](O)[C@H](N)C[C@H](N)[C@H]3O[C@H]3O[C@H](CN)[C@@H](O)[C@H](O)[C@H]3N)O[C@@H]2CO)[C@H](N)[C@@H](O)[C@@H]1O.O=S(=O)(O)O [Neomycin (sulfate)]	97.3447
CCCCCCCCN=c1ccn(CCCCCCCCCCn2ccc(=NCCCCCCCC)cc2)cc1.Cl.Cl [Octenidine (dihydrochloride)]	76.2265
COC(=O)Cc1ccc(C(C)(C)C)cc1 [Methyl p-tert-butylphenylacetate]	70.3748
OC[C@H]1O[C@@H](Oc2cc3c(O)cc(O)cc3[o+]c2-c2cc(O)c(O)c(O)c2)[C@H](O)[C@@H](O)[C@@H]1O.[Cl-] [Delphinidin 3-glucoside (chloride)]	73.356
COc1cccc2c1C(=N)c1c(O)c3c(c(O)c1C2=O)C[C@@](O)(C(C)=O)C[C@@H]3O[C@H]1C[C@H](N)[C@H](O)[C@H](C)O1 [5-Iminodaunorubicin]	80.0753
COc1cccc2c1C(=O)c1c(O)c3c(c(O)c1C2=O)C[C@@](O)(C(=O)CO)C[C@@H]3O[C@H]1C[C@H](N)[C@H](O[C@@H]2CCCCO2)[C@H](C)O1.Cl [Pirarubicin (Hydrochloride)]	86.4182
